Molecular target: DR2a (DRA*0101/DRB5*0101) (Homo sapiens, UniProt P01903+Q30154)
Construct: DRA*01011-181LZFos; DRB5*01011-190LZJunBSP; made in house
Experiment: Direct LOCI peptide-MHC-II binding assay, DR2a
Where no end group is shown, it is not given here.
Answer each item with its documented Kd.
Numbers only, in nM.

- HHHHHHIEGRFAALWFRNHFVFGGGTK [6xH Lambda 2(315)]: 5
- YLFFYRKSV [TERT572Y]: 2650
- IQMLKNGKKIPKVEMS [Murine β2m]: 6
- PLKAEIAQRLEDV [Influenza]: 65
- YILLKKILSSRFNQM [Plasmodium Falciparum]: 4

Next sequence, please.
[Q] Reported Kd, sequence PIVQNIQGQMVHQ [HIV] : ____
[A] 447

====

Target: DP401 (DPA1*0103/DPB1*0401) (Homo sapiens, UniProt P04440+P20036)
Experiment: Direct LOCI peptide-MHC-II binding assay, DP401
Where no end group is shown, it is not given here.
MEASUREMENT LABEL: pKd
Numbers only, as −log10 of the molar value.

[Q] Reported pKd, sequence PLKAEIAQRLEDV [Influenza] : ____
[A] 5.68

====

Target: DR2a (DRA*0101/DRB5*0101) (Homo sapiens, UniProt P01903+Q30154)
Construct: DRA*01011-181LZFos; DRB5*01011-190LZJunBSP; made in house
Test: Direct LOCI peptide-MHC-II binding assay, DR2a
Details: pH 6; 48 h 18°C; read-out: DR2a pH6 affinity
Where no end group is shown, it is not given here.
MEASUREMENT LABEL: Kd

// solved cases for Kd follow
- YILFLVKMNALRRLPV: 5 nM
- RMIAISAKV [Pox.o42.con.im. A2]: 1650 nM
- FLIDLAFLI [Pox.o42.con A2]: > 5000 nM

Next sequence, please.
[Q] Reported Kd, sequence YKYVKQNTLKLAT [HA306-318] : ____
[A] 10 nM

====

Molecular target: DP401 (DPA1*0103/DPB1*0401) (Homo sapiens, UniProt P04440+P20036)
Test: Direct LOCI peptide-MHC-II binding assay, DP401
Conditions: pH 7; 48 h 18°C; read-out: DP401 affinity
Where no end group is shown, it is not given here.
Answer each item with its documented Kd.
Give bare numbers, in nM.

* FLIDLAFLI [Pox.o42.con A2] | 179

Next sequence, please.
[Q] Reported Kd, sequence YILFLVKMNALRRLPV : ____
[A] 45

====

Target: DP401 (DPA1*0103/DPB1*0401) (Homo sapiens, UniProt P04440+P20036)
Assay: Direct LOCI peptide-MHC-II binding assay, DP401
Conditions: DP401 affinity (nM)
Where no end group is shown, it is not given here.
Answer each item with its documented Kd.
Give bare numbers, in nM.

// solved cases for Kd follow
- FLYGALLLA [MBP]: 34
- YILLKKILSSRFNQM [Plasmodium Falciparum]: 1

[Q] Reported Kd, sequence HHHHHHIEGRFAALWFRNHFVFGGGTK [6xH Lambda 2(315)] : ____
[A] 2

====

Target: DR2a (DRA*0101/DRB5*0101) (Homo sapiens, UniProt P01903+Q30154)
Construct: DRA*01011-181LZFos; DRB5*01011-190LZJunBSP; made in house
Experiment: Competitive LOCI peptide-MHC-II binding assay, DR2a
Details: pH 6-7.5; 48 h 18°C; read-out: DR2a Komp IC50
Where no end group is shown, it is not given here.
MEASUREMENT LABEL: pIC50
One number for each entry, as −log10 of the molar value.

- YKYVKQNTLKLAT [HA306-318]: 8.70
- RMIAISAKV [Pox.o42.con.im. A2]: 5.70
- FLIDLAFLI [Pox.o42.con A2]: 5.37

Next sequence, please.
[Q] Reported pIC50, sequence YILFLVKMNALRRLPV : ____
[A] 7.70
